# credit: patent US20130245355A1

# Tested On: PDK1 (Homo sapiens, UniProt O15530)
# Construct: His6 (N)
# Assay: Test for the inhibition of PDK1 (flashplate, 33P-ATP)
# Condition Parameters: His6-PDK1 (1-50) 3.4 nM, 4 μM ATP, 30° C., 60 min; read-out: IC50 [PDK1] biochemical
Experimental Readout: IC50

{"columns": ["Compound", "Experimental Readout", "Observed Measurement"],
 "data": [
  ["Cn1cc(-c2cnc3[nH]cc(-c4n[nH]c(C5(c6ccc(=O)[nH]c6)CC5)n4)c3c2)cn1 [A126]", "IC50", "0.0005 to 1 µM"],
  ["Cn1cc(-c2cnc3[nH]cc(-c4nnc(C(O)c5cccc(F)c5F)o4)c3c2)cn1 (centres unmarked) [A46]", "IC50", "0.0005 to 1 µM"],
  ["Cn1cc(-c2cnc3[nH]cc(-c4nnc(C5(c6ccccc6F)CC5)o4)c3c2)cn1 [A70]", "IC50", "0.0005 to 1 µM"],
  ["Cn1cc(-c2cnc3[nH]cc(-c4cc(C(C)(O)c5cccc(F)c5)[nH]n4)c3c2)cn1 (centres unmarked) [A37]", "IC50", "0.0005 to 1 µM"],
  ["Cn1cc(-c2cnc3[nH]cc(-c4noc(C(C)(O)c5ccccc5F)n4)c3c2)cn1 (centres unmarked) [A50]", "IC50", "0.0005 to 1 µM"],
  ["Cn1cc(-c2cnc3[nH]cc(-c4noc(C(C)(O)c5ccccc5)n4)c3c2)cn1 (centres unmarked) [A31]", "IC50", "0.0005 to 1 µM"],
  ["Cn1cc(-c2cnc3[nH]cc(-c4cc(C(C)(O)c5ccnnc5)on4)c3c2)cn1 (centres unmarked) [A98]", "IC50", "0.0005 to 1 µM"],
  ["CC(O)(c1cc(-c2c[nH]c3ncc(-c4cnn(CCO)c4)cc23)no1)c1ccccc1F (centres unmarked) [A24]", "IC50", "0.0005 to 1 µM"],
  ["Cn1cc(-c2cnc3[nH]cc(-c4n[nH]c(C(C)(O)c5cccc(F)c5)n4)c3c2)cn1 (centres unmarked) [A44]", "IC50", "0.0005 to 1 µM"],
  ["Cn1cc(-c2cnc3[nH]cc(-c4n[nH]c(C(C)(O)c5ccccc5)n4)c3c2)cn1 (centres unmarked) [A42]", "IC50", "0.0005 to 1 µM"]
]}

Continue with the compound presented below.
Ask: What does the record list as IC50 for COC(=O)c1ccc(C(O)c2nnc(-c3c[nH]c4ncc(-c5cnn(C)c5)cc34)o2)c(Cl)c1 (centres unmarked) [A128] ?
Reply: 1 to 10 µM

* * *

# Tested On: PDK1 (Homo sapiens)
# Construct: endogenous in cells; host or cells: PC3 cells
# Sequence (O15530 1-556): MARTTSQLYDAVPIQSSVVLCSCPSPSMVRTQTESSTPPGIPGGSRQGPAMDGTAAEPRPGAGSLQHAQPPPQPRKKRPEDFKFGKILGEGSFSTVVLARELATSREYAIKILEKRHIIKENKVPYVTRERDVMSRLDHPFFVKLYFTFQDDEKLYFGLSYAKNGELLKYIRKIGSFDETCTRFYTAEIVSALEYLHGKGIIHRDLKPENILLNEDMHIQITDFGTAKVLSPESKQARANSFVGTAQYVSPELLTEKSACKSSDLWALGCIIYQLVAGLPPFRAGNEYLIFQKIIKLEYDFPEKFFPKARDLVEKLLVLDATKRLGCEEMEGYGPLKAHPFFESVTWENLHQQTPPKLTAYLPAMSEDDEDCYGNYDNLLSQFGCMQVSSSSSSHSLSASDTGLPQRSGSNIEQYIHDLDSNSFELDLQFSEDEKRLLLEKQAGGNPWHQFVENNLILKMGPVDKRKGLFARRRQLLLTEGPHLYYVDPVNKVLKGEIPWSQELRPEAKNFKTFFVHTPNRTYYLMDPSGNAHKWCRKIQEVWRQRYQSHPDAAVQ
# Assay: Cellular testing of PDK1 kinase inhibitors in PC3 cells (Luminex, phospho-T308-PKB)
# Type: cell-based
# Condition Parameters: 30 min, serum-free
pIC50: −log10 of the molar value.
Experimental Readout: pIC50

{"columns": ["Compound", "Tested On", "pIC50"],
 "data": [
  ["Cn1cc(-c2cnc3[nH]cc(-c4cc(C(C)(O)c5cccc(F)c5)on4)c3c2)cn1 (stereo not drawn)", "PDK1 (Homo sapiens)", "6.00 to 9.30"],
  ["Cn1cc(-c2cnc3[nH]cc(-c4cc(C(O)(c5ccnnc5)C(C)(C)C)on4)c3c2)cn1 (stereo not drawn)", "PDK1 (Homo sapiens)", "5.00 to 6.00"]
]}

Ask: Notebook: pull reported pIC50 for PDK1 (Homo sapiens), entry Cn1cc(-c2cnc3[nH]cc(-c4noc(C(C)(O)c5ccccc5F)n4)c3c2)cn1 (stereo not drawn)
Reply: 5.00 to 6.00

Ask: What do you get for `Cn1cc(-c2cnc3[nH]cc(-c4csc(Cc5ccccc5)n4)c3c2)cn1` ?
Reply: 5.00 to 6.00

Ask: What do you get for `Cn1cc(-c2cnc3[nH]cc(-c4n[nH]c(C5(c6ccc(Cl)nc6)CC5)n4)c3c2)cn1` ?
Reply: 5.00 to 6.00

Ask: What do you get for `Cn1cc(-c2cnc3[nH]cc(-c4nnc(C5(c6cccnc6)CC5)o4)c3c2)cn1` ?
Reply: 5.00 to 6.00

Ask: What do you get for `C=C(c1ccccc1)c1cc(-c2c[nH]c3ncc(-c4cnn(C)c4)cc23)nn1CCO` ?
Reply: 5.00 to 6.00

Ask: What do you get for Cn1cc(-c2cnc3[nH]cc(-c4noc(C(O)c5ccccc5)n4)c3c2)cn1 (stereo not drawn) ?
Reply: 5.00 to 6.00

Ask: What do you get for `Cn1cc(-c2cnc3[nH]cc(-c4csc(Cc5cccc(F)c5)n4)c3c2)cn1` ?
Reply: 5.00 to 6.00

* * *

# Tested On: PDK1 (Homo sapiens)
# Construct: His6 (N)
# Assay: Test for the inhibition of PDK1 (flashplate, 33P-ATP)
# Condition Parameters: His6-PDK1 (1-50) 3.4 nM, 4 μM ATP, 30° C., 60 min; read-out: IC50 [PDK1] biochemical
Experimental Readout: IC50

Ask: What does the record list as IC50 for Cn1cc(-c2cnc3[nH]cc(-c4cc(C(O)c5ccccc5)nn4CCO)c3c2)cn1 (stereo not shown) [A107] ?
Reply: 0.0005 to 1 µM

Ask: What do you get for `Cn1cc(-c2cnc3[nH]cc(-c4nnc(C5(c6ccccn6)CC5)o4)c3c2)cn1` ?
Reply: 1 to 10 µM

Ask: What do you get for Cn1cc(-c2cnc3[nH]cc(-c4cc(C(C)(O)c5cccc(F)c5F)[nH]n4)c3c2)cn1 (stereo not shown) ?
Reply: 0.0005 to 1 µM

Ask: What do you get for `Cn1cc(-c2cnc3[nH]cc(-c4nnc(C5(c6cccnc6)CCCC5)o4)c3c2)cn1` ?
Reply: 0.0005 to 1 µM

Ask: What do you get for Cn1cc(-c2cnc3[nH]cc(-c4nnc(C(O)c5ccccc5C(F)(F)F)o4)c3c2)cn1 (stereo not shown) ?
Reply: 0.0005 to 1 µM

* * *

# Tested On: PDK1 (Homo sapiens, UniProt O15530)
# Construct: endogenous in cells; host or cells: PC3 cells
# Sequence (O15530 1-556): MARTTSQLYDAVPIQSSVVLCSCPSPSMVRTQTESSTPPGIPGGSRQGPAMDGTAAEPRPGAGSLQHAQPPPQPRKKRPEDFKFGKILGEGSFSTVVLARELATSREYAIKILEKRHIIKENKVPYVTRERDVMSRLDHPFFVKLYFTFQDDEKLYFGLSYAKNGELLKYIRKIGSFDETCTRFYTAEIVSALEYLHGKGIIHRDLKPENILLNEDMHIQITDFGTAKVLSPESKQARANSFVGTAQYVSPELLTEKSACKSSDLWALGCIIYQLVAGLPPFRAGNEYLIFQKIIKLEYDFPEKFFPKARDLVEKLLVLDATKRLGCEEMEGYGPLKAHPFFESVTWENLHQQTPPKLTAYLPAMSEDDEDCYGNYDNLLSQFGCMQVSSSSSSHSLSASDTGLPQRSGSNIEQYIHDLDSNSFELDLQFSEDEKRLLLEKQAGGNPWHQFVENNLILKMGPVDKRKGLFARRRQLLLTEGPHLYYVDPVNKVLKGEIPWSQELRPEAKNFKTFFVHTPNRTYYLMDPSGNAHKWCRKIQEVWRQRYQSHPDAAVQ
# Assay: Cellular testing of PDK1 kinase inhibitors in PC3 cells (Luminex, phospho-T308-PKB)
# Format: cell-based
# Condition Parameters: 30 min, serum-free
# Description: Method for the Cellular Testing of PDK1 Kinase Inhibitors in PC3 Cells. The cellular assay for the determination of the PDK1 kinase activity is carried out as a Luminex assay in the 96-well format. […] The values of the batches treated with test substance are calculated therefrom as percentage of control, and IC50 values are determined by means of RS 1.
Reported IC50 is given for each of the following compounds.

Answered cases to consult:
{"columns": ["Compound", "Tested On", "Observed Measurement"],
 "data": [
  ["Cn1cc(-c2cnc3[nH]cc(-c4nnc(Cc5ccccc5F)o4)c3c2)cn1", "PDK1 (Homo sapiens, UniProt O15530)", "0.0005 to 1 µM"],
  ["Cn1cc(-c2cnc3[nH]cc(-c4cc(C(C)(O)c5cccc(F)c5F)on4)c3c2)cn1 (stereo not shown)", "PDK1 (Homo sapiens, UniProt O15530)", "0.0005 to 1 µM"],
  ["Cn1cc(-c2cnc3[nH]cc(-c4nnc(C(C)(O)c5ccccc5Cl)o4)c3c2)cn1 (stereo not shown)", "PDK1 (Homo sapiens, UniProt O15530)", "1 to 10 µM"]
]}

Continue with the compound presented below.
Ask: What does the record list as IC50 for Cn1cc(-c2cnc3[nH]cc(-c4cc(C(C)(O)c5ccccc5Cl)[nH]n4)c3c2)cn1 (stereo not shown) ?
Reply: 1 to 10 µM
